Data provenance is patent US11111238B2.

System: NCI-H596 (lung)
Assay: CellTiter GLO viability assay, NCI-H596
Format: cell-based
Conditions: Homo sapiens, 144 h, read-out: IC50 (μM) incubation time 144 h
Description: The CellTiter-Glo Luminescent Cell Viability Assay (Promega) is a homogeneous method of determining the number of viable cells in culture. It is based on quantification of ATP, indicating the presence of metabolically active cells. […] The plates were mixed at ˜200 rpm for 2 minutes on an orbital shaker. […] Following incubation the luminescence is recorded on a Victor microplate reader (Perkin Elmer) using 200 ms integration time. […]
Each entry below carries its recorded IC50.

Examples from the recorded data:
C[C@@H](Oc1ccc2c(-c3ccc(F)cc3Cl)cc(=O)oc2c1)C(=O)N1CCC[C@H](C(=O)O)C1	1 to 10 µM
CC(Oc1ccc2c(-c3ccc(F)cc3Cl)cc(=O)oc2c1)C(=O)N1CCC[C@H](C(=O)O)C1 (stereo partly drawn)	1 to 10 µM

Moving on to the next compound.
// fetch NCI-H596 (lung) IC50 for Cc1ccccc1-c1cc(=O)oc2cc(OC(C)C(=O)N(C)C)ccc12 (stereo not drawn)
1 to 10 µM

###

test system: mitochondrial transcription (7S RNA) in HeLa cells; test: Quantitative real time-PCR assay of inhibition of mitochondrial transcription (cellular qPCR assay IMT); assay type: cell-based; conditions: Homo sapiens, 4 h compound incubation, qRT-PCR according to Example 5, activity class
Metric: IC50

Reported IC50, molecule "Cc1ccccc1-c1cc(=O)oc2cc(OC(C)(C)C(=O)NC(C)C)ccc12" : ____
10 to 50 nM

Reported IC50, molecule CC(Oc1ccc2c(-c3ccc(F)cc3Cl)cc(=O)oc2c1)C(=O)N1CCC[C@H](C(=O)O)C1 (stereo partly shown) : ____
< 10 nM

Reported IC50, molecule "Cc1ccsc1-c1cc(=O)oc2cc(O[C@H](C)C(=O)N3CCCCC3)ccc12" : ____
< 10 nM

Reported IC50, molecule "Cc1ccsc1-c1cc(=O)oc2cc(O[C@H](C)C(=O)N(C)C)ccc12" : ____
10 to 50 nM

###

system: mitochondrial transcription (7S RNA) in HeLa cells; experiment: Quantitative real time-PCR assay of inhibition of mitochondrial transcription (cellular qPCR assay IMT); type: cell-based; conditions: Homo sapiens, 4 h compound incubation, qRT-PCR according to Example 5, activity class
Metric: IC50

Examples from the recorded data:
CC(C)OC(=O)OCOC(=O)[C@H]1CCCN(C(=O)[C@@H](C)Oc2ccc3c(-c4ccc(F)cc4Cl)cc(=O)oc3c2)C1 [Compound 121]	< 10 nM
CC(Oc1ccc2c(-c3ccccc3Cl)cc(=O)oc2c1)C(=O)N1CCCC(CC(=O)O)C1 (centres unmarked) [Compound 66]	< 10 nM
Cc1ccccc1-c1cc(=O)oc2cc(OC(C)C(=O)N3CCC[C@H](C(=O)N(C)C)C3)ccc12 (some centres unmarked) [Compound 84]	10 to 50 nM
CCNC(=O)C(C)Oc1ccc2c(-c3ccccc3Cl)cc(=O)oc2c1 (centres unmarked) [Compound 98]	< 10 nM

Reported IC50, compound C[C@@H](Oc1ccc2c(-c3ccccc3Cl)cc(=O)oc2n1)C(=O)N1CCC[C@H](C(=O)O)C1 [Compound 172] : ____
50 to 500 nM

###

Each entry below carries its recorded pIC50.
target: UniProt Q8BKF1; assay: Homogeneous TR-FRET assay for mitochondrial transcription activity; type: biochemical; conditions: homogeneous TR-FRET assay according to Example 4; activity class
Sequence (Q8BKF1 42-1207): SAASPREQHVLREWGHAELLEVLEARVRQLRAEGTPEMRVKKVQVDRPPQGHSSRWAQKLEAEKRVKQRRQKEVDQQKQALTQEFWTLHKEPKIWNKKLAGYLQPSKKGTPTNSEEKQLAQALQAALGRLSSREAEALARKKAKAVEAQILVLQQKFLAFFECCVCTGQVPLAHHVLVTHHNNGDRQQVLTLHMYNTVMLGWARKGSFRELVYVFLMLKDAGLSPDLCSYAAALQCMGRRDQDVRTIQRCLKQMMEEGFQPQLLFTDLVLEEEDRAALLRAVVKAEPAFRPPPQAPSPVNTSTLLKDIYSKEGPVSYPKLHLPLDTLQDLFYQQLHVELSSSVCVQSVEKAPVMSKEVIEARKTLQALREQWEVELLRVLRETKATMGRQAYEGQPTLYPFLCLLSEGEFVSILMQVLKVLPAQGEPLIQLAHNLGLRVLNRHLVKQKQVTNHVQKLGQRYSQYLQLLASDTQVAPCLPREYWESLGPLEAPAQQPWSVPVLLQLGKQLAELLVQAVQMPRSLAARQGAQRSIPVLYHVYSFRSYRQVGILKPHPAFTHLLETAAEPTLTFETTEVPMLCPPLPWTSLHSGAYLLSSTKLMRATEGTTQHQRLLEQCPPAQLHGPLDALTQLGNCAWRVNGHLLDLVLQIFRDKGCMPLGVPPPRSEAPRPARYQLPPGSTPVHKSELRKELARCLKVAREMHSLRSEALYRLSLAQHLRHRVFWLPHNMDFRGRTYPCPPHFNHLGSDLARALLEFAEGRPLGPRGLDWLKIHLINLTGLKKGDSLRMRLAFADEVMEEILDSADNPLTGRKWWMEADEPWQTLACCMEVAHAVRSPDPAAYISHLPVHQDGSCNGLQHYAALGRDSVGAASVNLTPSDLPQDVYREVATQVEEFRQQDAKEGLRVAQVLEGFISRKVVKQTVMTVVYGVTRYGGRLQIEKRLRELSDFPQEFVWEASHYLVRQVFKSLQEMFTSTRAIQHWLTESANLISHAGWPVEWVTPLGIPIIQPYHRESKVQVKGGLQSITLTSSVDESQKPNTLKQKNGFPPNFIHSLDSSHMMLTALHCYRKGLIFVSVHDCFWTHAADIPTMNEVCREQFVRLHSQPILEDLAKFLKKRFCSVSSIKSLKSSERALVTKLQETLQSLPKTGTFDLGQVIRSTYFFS
pIC50: −log10 of the molar value.

CC(Oc1ccc2c(-c3ccccc3Cl)cc(=O)oc2c1)C(=O)Nc1ccccn1 (stereo not drawn)	> 7.70
COC(=O)[C@H]1CCN(C(=O)[C@@H](C)Oc2ccc3c(-c4ccc(F)cc4Cl)cc(=O)oc3c2)C1	7.00 to 7.70
CC(Oc1ccc2c(-c3ccccc3Cl)cc(=O)oc2c1)C(=O)N1CCC(F)(F)CC1 (stereo not drawn)	7.00 to 7.70
C[C@@H](Oc1ccc2c(-c3ccc(F)cc3Cl)cc(=O)oc2c1)C(=O)Nc1cccc(C(=O)O)n1	> 7.70
COC(=O)C1CN(C(=O)[C@@H](C)Oc2ccc3c(-c4ccc(F)cc4Cl)cc(=O)oc3c2)CCN1C (mixture of isomers)	6.00 to 7.00

Moving on to the next compound.
Reported pIC50, compound CC(Oc1ccc2c(-c3ccccc3Cl)cc(=O)oc2c1)C(=O)N1CCCC(S(N)(=O)=O)C1 (stereo not drawn) : ____
> 7.70
